# Lookup of reported pKi keyed by entry
target entity: recombinant HIV-1 protease (Human immunodeficiency virus type 1 group M subtype B)
procedure text: biochemical
Type: biochemical
test parameters: read-out: Ki
pKi: −log10 of the molar value.

# compound, pKi
measured = [
    ("CC[C@H](OP(=O)(O)COc1ccc(C[C@H](NC(=O)O[C@H]2CO[C@H]3OCC[C@H]32)[C@H](O)CN(CC(C)C)S(=O)(=O)c2ccc(OC)cc2)cc1)C(=O)O [drawing 659 R1=OH R2=(S)Hba-OH]", "10.00 to 11.00"),
    ("CCCCOC(=O)C(C)OP(=O)(COc1ccc(C[C@H](NC(=O)O[C@H]2CO[C@H]3OCC[C@H]32)[C@H](O)CN(CC(C)C)S(=O)(=O)c2cccc(N)c2)cc1)Oc1ccccc1 (stereo partly drawn) [drawing 763]", "10.00 to 11.00"),
    ("COc1ccc(S(=O)(=O)N(CC(C)C)C[C@@H](O)[C@H](CN2CCc3cc(OCP(=O)(O)OC(C)C(=O)O)ccc3C2)NC(=O)O[C@H]2CO[C@H]3OCC[C@H]32)cc1 (stereo partly drawn)", "9.00 to 10.00"),
]

---

System: WT HIV-1
procedure text: microbe, parasite or virus in culture
Type: cell-based
test parameters: Human immunodeficiency virus 1, read-out: EC50 [nM] WT HIV-1
Rule: measured EC50 below 8 nM gets 1 (yes); anything equal to or greater than 8 nM gets 0 (no).

# compound, assigned label
measured = [
    ("CC(C)(C)NC(=O)[C@@H]1CN(Cc2cccnc2)CCN1C[C@@H](O)C[C@@H](Cc1ccccc1)C(=O)N[C@H]1c2ccccc2C[C@H]1O [Indinavir, reference compound]", "0 (no)"),
    ("COc1ccc(S(=O)(=O)N(CC(C)C)C[C@@H](O)[C@H](Cc2ccccc2)NC(=O)O[C@H]2CO[C@H]3OCC[C@H]32)cc1 [94-003, reference compound]", "1 (yes)"),
    ("CC(C)(C)NC(=O)[C@@H]1C[C@@H]2CCCC[C@@H]2CN1C[C@@H](O)[C@H](Cc1ccccc1)NC(=O)[C@H](CC(N)=O)NC(=O)c1ccc2ccccc2n1 [Saquinavir, reference compound]", "1 (yes)"),
    ("CCC[C@@]1(CCc2ccccc2)CC(O)=C([C@H](CC)c2cccc(NS(=O)(=O)c3ccc(C(F)(F)F)cn3)c2)C(=O)O1 [Tipranavir]", "0 (no)"),
    ("CC(C)CN(C[C@@H](O)[C@H](Cc1ccccc1)NC(=O)O[C@H]1CCOC1)S(=O)(=O)c1ccc(N)cc1 [Amprenavir]", "0 (no)"),
    ("CC(C)c1nc(CN(C)C(=O)N[C@H](C(=O)N[C@@H](Cc2ccccc2)C[C@H](O)[C@H](Cc2ccccc2)NC(=O)OCc2cncs2)C(C)C)cs1 [Ritonavir, reference compound]", "0 (no)"),
    ("Cc1c(O)cccc1C(=O)N[C@@H](CSc1ccccc1)[C@H](O)CN1C[C@H]2CCCC[C@H]2C[C@H]1C(=O)NC(C)(C)C [Nelfinavir]", "0 (no)"),
]

---

Test system: wild-type HIV-1 strain IIIB
procedure text: microbe, parasite or virus in culture
Assay type: cell-based
test parameters: read-out: EC50
pEC50: −log10 of the molar value.
Reported pEC50 is given for each of the following molecules.
property measured: pEC50

# molecule, target entity, property measured, measured value
records = [
    ("CCOP(=O)(CCC1=CCN(CC(NC(=O)OC2COC3OCCC23)C(O)CN(CC(C)C)S(=O)(=O)c2ccc(OC)cc2)CC1)OCC (centres unmarked)", "wild-type HIV-1 strain IIIB", "pEC50", "> 7.30"),
    ("CCOC(=O)C(C)OP(=O)(COc1ccc(C[C@H](NC(=O)O[C@H]2CO[C@H]3OCC[C@H]32)[C@H](O)CN(CC(C)C)S(=O)(=O)c2ccc(OCc3ccccc3)cc2)cc1)Oc1ccccc1 (some centres unmarked)", "wild-type HIV-1 strain IIIB", "pEC50", "6.30 to 7.30"),
    ("CCOC(=O)C(CC)OP(=O)(COc1ccc(CC(NC(=O)OC2COC3OCCC23)C(O)CN(CC(C)C)S(=O)(=O)c2ccc(OC)cc2)cc1)Oc1ccccc1 [drawing 659 R1=OPh R2=(R)Hba-Et]", "wild-type HIV-1 strain IIIB", "pEC50", "> 7.30"),
    ("Cc1cccc(C)c1OCC(=O)N[C@@H](Cc1ccc(OCP(=O)(Oc2ccccc2)Oc2ccccc2)cc1)[C@H](O)CN(CC(C)C)S(=O)(=O)c1ccc(N)cc1", "wild-type HIV-1 strain IIIB", "pEC50", "> 7.30"),
    ("COc1ccc(S(=O)(=O)N(CC(C)C)C[C@@H](O)[C@H](Cc2ccc(OCP(=O)(Oc3ccccc3)OC(C)C(=O)OCCCN3CCOCC3)cc2)NC(=O)O[C@H]2CO[C@H]3OCC[C@H]32)cc1 (some centres unmarked) [drawing 658 R1=OPh R2=Lac-PrMor]", "wild-type HIV-1 strain IIIB", "pEC50", "< 5.30"),
    ("CCOC(=O)C(C)OP(=O)(COc1ccc(CC(NC(=O)OC2COC3OCCC23)C(O)CN(CC(C)C)S(=O)(=O)c2ccc(C=O)cc2)cc1)Oc1ccccc1 (centres unmarked)", "wild-type HIV-1 strain IIIB", "pEC50", "> 7.30"),
    ("COc1ccc(S(=O)(=O)N(CC(C)C)CC(O)C(Cc2ccc(C)cc2)NC(=O)OC2COC3OCCC23)cc1 (centres unmarked)", "wild-type HIV-1 strain IIIB", "pEC50", "> 7.30"),
    ("CCOC(=O)C(C)OP(=O)(COc1ccc(CC(NC(=O)OC2COC3OCCC23)C(O)CN(CC(C)C)S(=O)(=O)c2ccc(OC)cc2)cc1)Oc1ccccc1CC(C)C [drawing 660 R1=OPh—o-i-But R2=(S)Lac-Et]", "wild-type HIV-1 strain IIIB", "pEC50", "> 7.30"),
    ("CCOC(=O)C(C)OP(=O)(COc1ccc(CC(NC(=O)OC2COC3OCCC23)C(O)CN(CC(C)C)S(=O)(=O)c2ccc(CO)cc2)cc1)Oc1ccccc1 (centres unmarked)", "wild-type HIV-1 strain IIIB", "pEC50", "> 7.30"),
    ("CCOC(=O)C(C)OP(=O)(CCN1CC=C(CC(NC(=O)OC2COC3OCCC23)C(O)CN(CC(C)C)S(=O)(=O)c2ccc(OC)cc2)CC1)Oc1ccccc1 (centres unmarked)", "wild-type HIV-1 strain IIIB", "pEC50", "< 5.30"),
    ("CC(C)CN(CC(O)C(Cc1ccc(OCP(=O)(OCc2ccccc2)OC(C)C(=O)OCc2ccccc2)cc1)NC(=O)OC1COC2OCCC12)S(=O)(=O)c1ccc[n+]([O-])c1 (centres unmarked)", "wild-type HIV-1 strain IIIB", "pEC50", "< 5.30"),
]

---

System: wild-type HIV-1 strain IIIB
procedure text: microbe, parasite or virus in culture
Type: cell-based
test parameters: read-out: EC50
Measured EC50 by item
property measured: EC50

# compound, property measured, measured value
data = [
    ("CC(C)CN(C[C@@H](O)[C@H](Cc1ccc(OCP(=O)(OCc2ccccc2)OC(C)C(=O)OCc2ccccc2)cc1)NC(=O)O[C@H]1CO[C@H]2OCC[C@H]21)S(=O)(=O)c1ccccc1 (stereo partly drawn)", "EC50", "50 to 500 nM"),
    ("CCOC(=O)C(C)OP(=O)(COc1ccc(C[C@H](NC(=O)O[C@H]2CO[C@H]3OCC[C@H]32)[C@H](O)CN(CC(C)C)S(=O)(=O)c2ccc(F)cc2)cc1)Oc1ccccc1 (stereo partly drawn)", "EC50", "< 50 nM"),
    ("COc1ccc(S(=O)(=O)N(CC(C)C)C[C@@H](O)[C@H](Cc2ccc(OCP(=O)(Oc3ccccc3)OC(C)C(=O)OCCN3CCOCC3)cc2)NC(=O)O[C@H]2CO[C@H]3OCC[C@H]32)cc1 (stereo partly drawn) [drawing 658 R1=OPh R2=Lac-EtMor]", "EC50", "> 5000 nM"),
    ("CCOC(=O)C(C)NP(=O)(COc1ccc(C[C@H](NC(=O)O[C@H]2CO[C@H]3OCC[C@H]32)[C@H](O)CN(CC(C)C)S(=O)(=O)c2ccc(OC)cc2)cc1)OCc1ccccc1 (stereo partly drawn) [drawing 657 R1=OBn R2=Ala-Et]", "EC50", "< 50 nM"),
    ("CCOC(=O)C(C)OP(=O)(COc1ccc(CC(NC(=O)OC2COC3OCCC23)C(O)CN(CC(C)C)S(=O)(=O)c2ccc(OC)cc2)cc1)OCC(F)(F)F (stereo not drawn) [drawing 658 R1=OCH2CF3 R2=Lac-Et]", "EC50", "50 to 500 nM"),
    ("CCOC(=O)[C@H](C)OP(=O)(COc1ccc(C[C@H](NC(=O)O[C@H]2CO[C@H]3OCC[C@H]32)[C@H](O)CN(CC(C)C)S(=O)(=O)c2ccc(OC)cc2)cc1)Oc1cccc(CN2CCCCC2)c1 (stereo partly drawn) [drawing 660 R1=OPh-m-CH2Pip R2=(S)Lac-Et]", "EC50", "50 to 500 nM"),
    ("CCOC(=O)C(C)OP(=O)(Cc1ccc2c(c1)CCN(C[C@H](NC(=O)O[C@H]1CO[C@H]3OCC[C@H]31)[C@H](O)CN(CC(C)C)S(=O)(=O)c1ccc(OC)cc1)C2)Oc1ccccc1 (stereo partly drawn)", "EC50", "50 to 500 nM"),
    ("COc1ccc(S(=O)(=O)N(CC(C)C)C[C@@H](OP(=O)(O)O)[C@H](Cc2ccc(OCP(=O)(Oc3ccccc3)O[C@@H](C)C(=O)OC(C)C)cc2)NC(=O)O[C@H]2CO[C@H]3OCC[C@H]32)cc1 (stereo partly drawn)", "EC50", "< 50 nM"),
    ("CCOC(=O)[C@H](C)OP(=O)(COc1ccc(C[C@H](NC(=O)O[C@H]2CO[C@H]3OCC[C@H]32)[C@H](O)CN(CC(C)C)S(=O)(=O)c2ccc(OC)cc2)cc1)ON1CCCCC1 (stereo partly drawn) [drawing 660 R1=OPip R2=(S)Lac-Et]", "EC50", "500 to 5000 nM"),
]
